- SYSTEM UNDER TEST: recombinant α-synuclein fibrils (Homo sapiens, UniProt P37840)
- TEST SUMMARY: radioactive competitive binding assay with [^3H]BF2846 (Tables 1 and 2: or [^18F]7j with LBD-amplified fibrils)
- ASSAY SETUP: [^3H]BF2846 competitive assay; read-out: Ki value for α-synuclein fibrils
- Method: Three concentrations of the test compounds (10 nM, 100 nM, and 1 μM) were selected and individually mixed with [^3H]BF2846 (∼4 nM). […] Next, 50 μL of scintillation cocktail (MicroScint-20, PerkinElmer) was added to the collected filtrate and counted on a Microbeta system (PerkinElmer Inc., Waltham, MA, USA). The total binding was measured in the absence of the tested compounds, and non-specific binding was defined by the presence of 100 nM of unlabeled BF2846 in the working buffer. […]
QUANTITY NAME: Ki (nM)
Dear colleague, please return just the value in nM, with no unit written.

COMPOUND	UNIT INFO	EXPERIMENTAL RESULT
COc1ccc(Nc2ccc3cc(OC(F)(F)F)ccc3n2)cn1 [Compound 7h]	nM	100

query: Give the reported value of Ki for this record: COc1ccc(Nc2ccc3ccccc3n2)cn1 [Compound 3a]
result: 100
